B1: TPR t1 (parent)
chain: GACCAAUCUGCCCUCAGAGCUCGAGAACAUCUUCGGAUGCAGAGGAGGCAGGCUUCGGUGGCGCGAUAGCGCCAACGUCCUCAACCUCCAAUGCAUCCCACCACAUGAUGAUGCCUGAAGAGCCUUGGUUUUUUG

variants of: B1; assay: polymerase ribozyme fitness, log enrichment relative to wild type (log ratio); higher = more active; in vitro selection for triplet polymerase activity
Attribute: polymerase ribozyme fitness (log ratio)

polymer sequence | polymerase ribozyme fitness (log ratio)
GACCAAUCUGCCCUCAGAGCUUGAGAACAUCUUCGGAUGCAGAGGAGGCAGGCUUCGGUGGCGCGAUAGCGCGAACGUCCUAAACCUCCAAUGCAUCCCACCACAUGAUGAUGCCUGAAUAGCCUUGGAUUUUUG | -5.92
GACCAAUCUGCCCUCAGAGCUCGAGAACAUCUUCGGAUGCAGAGGAGGCAGGCUUCGGUAGCGCGAUAGCGCCAACGUCCUCAACCUCCAAUGCAUCACACCACAUGAUGAUGCCUGAAGAGCCUUGGUUUUUUG | -4.29
GACGAAUCUGCACUAAGAGCUCGAGAACAUCUUCGGAUGCAGAGGAGGCAGGCUUCGGUGGCGCGAUAGCGCCAACGUCCUCAACCUCCAAUGAAUCCUACCACAUGAUCAUGCCUGAAGAGCCUUGGUUUUUUG | -6.59
GACCAAUCUGCACUCAGAGCUCGAGAACAUCUUCGGAUGCAGAGGAGGCAGGCUUCGGUGGCGCGAUAGCGCCAACGUCCUAAACCUCCAAUGCAUCCCACCACAUGAUGAUGCCUGAAGAGCCUUGGUUUUUUG | -0.699
GACCAAUCUGCCAUCAGAGCUCGAGAACAUCUUCGGAUGCAGAGGAGGAAGGCUUCGGUGGCGCGAUAGCACCAACGUCCUCAACCUCCAAUGCAUCCCACCACAUGAUGAUGCCUGAAGAGCCUUGGUUUUUUG | -1.76
GACCAAUCUGCCCUCAGAGCUCGAGAACAUCUUCGGAUGCAGAGGAGGCAGGCUUCGGUGGCGCGAUAGCGCCAACGUCCUCAACCUACAAUGCAUCCCACCACAUGAUGAUGCCUGAAGAGUCUUUGUUGUUUG | -0.279
GACCAAUCUGCCCUCAGAGCUCGAGAACAUCUUCGGAUCCAGAGGAGGCAGGCUUAGGUGGCGCGAUAGCGCCAACGUCCUCAACCUCCAAUGCAUCCCACCACAUGAUGAUGCCUGAAGAGCCUUGGUUUUUUG | -0.765
GACCAAUCUGCCCUCAGAGCUCGAGAACAUCUUCGUAUGCAGAGGAGGCAGGCUUCGGUGGCGCGAUAGGGCCAACGUCCUCAACCUCCAAUGCAUCCCACCACAUGAUGAUGCCUGAAGAGCCUUGGUUUUUUG | -4.21
GACAAAUCUGCCUUCAGAGCUCGAGUACAUCUUCGGAUGCAGAUGAGGAAGGCUUCGGUGGCGCGAUAGCGCCAACGUCCUCAACCUCCAAUGCAUCCCACCAUAUGAUGAUGCCUGAAGAGCCUUGGUUUUUUG | -6.34
GACCAAUCUGCCCUCAGAGCUCGAGAACAUCUUCGGAUGCAGAGGAGGCAGGCUUCGGUGGCGCGAUAGCGCCAACGUCUUCAACCUCCAAUGCAUCCCACCACAUGAUGAUGCCUCAAGAGCCUUGGUUUUUUG | -3.58
GACCCAUCUGCCCUCACAGCUCGAGAACAUCUUCGGAUGCAGAAGAGGCAGGCUUCGGUGGCGCGAUAGCGCCAACGUCCUCUACCUCCAAUGCAUCCCACCACAUGAUGAUGCCUGAAAAGCCUUGGUUAUUUG | -4.99
GACCCAUCUGCCCUCAGAGCUCGAGAACAUCUUCGGAUGCAGAGGAGGCAGGCUUAGGUGGCGCGAUAGCGCCAACGUCCUCAACCUCCAAUGCAUCCCACCACAUGAUGAUGCCUGAAGAGCCUUGGUUUUUUG | -0.668
GACCAAUCUGCCCUCAGAGCUCGAGAACAUCUUCGGAUGCAGAGGAGGCAGGCUUGGGUGGCGCGAUAGCGCCAACAUCCUCAACCUCCAAUGCAUCCCACCACAUGAUGAUGCCUGAAGAGCCUUGGUUUUUUG | -0.468
GACCAAUCUGCCCUCAGAGCCCGAGAACAUCUUCGGAUGCAAAGGAGGCAGGCUUCGGUGGCGCGAUAGCGCCAACGUCCUCAACCUUAAAUGCAUCCCACCACAUGAUGAUGCCUGAAGAGCCUUGGUUUUUUG | -3.87
GACCAAUCUGCCCUCAGAGCUCGAGAACAUCUUAGGAUGCAGAGGAGGCAGGCUUAGGUGGCGCGAUAGCGCCAACGUCCUCAACCUCCAAUACAUUCCACCACAUGAUGAUGCCUGAAGAGCCUUGGUUUUUUG | -4.7
GACCAACCUGCCCUCAGAGCUAGAGAACAUCUUCGGAUGCAGAGGAGGCAGGCUUCGGUGGCGCGAUAGCGCCAACGUCCUAAACCUCUAAUGCAUCCCACCACAUGAUGAUGCCUGAAGAGCCUUGGUUUUUUG | -4.93
GACCAAUCUGCUCUCAGAGCUCGAGAACAUCUUCGGAUGCAGAGGUGGCAUGCUUCGGUAGCGCGAUAGCGCCAACGUCCUCAACCUCCAAUGCAUCCCACCACAUGAUGAUGCCUGAAGAGCCUUGGUUUUUUG | -3.42
GACCAAUCUGCCCUCAGAGCUCGAGAACAUCUUCGGAUGCAGAGUAGGCAGGCUUCGGUGGCGCGAUAGCGCCAACGUCCUCAACCUCCAAUGCAUCCCACCAAAUGAUUAUGCCUGCAGAGCCUUGGUUUUUUG | -5.08
GACCAAUCUGCCCUCAGAGCUCGAGAACAUCUUCGGAUGCAGAGGAGGCUGGCUUCGGUGGCGCGAUAGCGCCAACGUCCUCAAUCUCCAAUGCAUCCCACCACAUGAUGAUGCCUGAACAGCCUUGGUAUUUUG | -0.66
GACCAAUCUGCGCUCAGAAUUCGAGAACAUCUUCGGAUGCAGAGGAGGCAGGCUUCGGUGGCGCGAUAGCGCCAACGUCCUCAACCUCCAAUGCAUCUCACCACAUGAUGAUGCCUGAAGAGCCUUGGUUUUUUG | -3.29
GACCAAUCUGCCCUCAGAGCUCGAGAACAUCUUCGGAUGCAGAGGAGGUAGGCUUCGGUGGCGCGAUAGCGCCAACGUCCUCAACCUCCAAUGCAUCCCACCACAUGAUGAUGCCUGAAGAGCCUUGUUUUUUUG | -2.9
GACCAAUCUGUCCUCAGAGCUCGAGAACAUCUUCGGAUGCAGAGGAGGCAGGCUUCGGUGGCGCGAUAGCGCCAACGUCCUCAACCUCCAAUGCAUCCCACCACAUGAUGAAGCCUGAAGAGCCUUGGUUUUUUG | 1.19
GACCAAUCUGCCCUCAGAGCUCGAGAACAUCUUCGGAUGCAGAUGAGGCACGCUUCGGUGGCGCGAUAGCGCCAACGUCCUCAACCUCCAAUGCAUCCCACCACAUGAUGAUGCCUGAAGAGCCUUGGUUUUUUG | -5.32
GACCAAUCUGCCCUCAGAGCUCGAGAACAUCUUCGGAUGCAGAGGAGGCAGGCUUCGGUGGCGCGAUAGCGCCAAAGUGCUCAACCUCCAAUGCAUCCCACCACAUGAUGAUGCCUGAAGAGCCUUGGUUUUUUG | -0.726
GACCAAUCUGCCCUCAGAGCUCGAGAACAUCUUCGGAUGCAGAGGAGGCAGGCAUCGGUGGCGCGAUAGGGCCAACGUCCUCAACCUUCAAUGCAUCCCACCACAUGAUGAUGCCUGAAGAGCCUUGGUUUUUUG | -3.24
GACCAAUCUGCCCUCAGAGCUCGAGAACAUCUUCGGAUGCAGAGGAGGCAGGCUUCGGUGGCGCGAUAGCGCCAACGUCCUCAACCUCCAAUGCAUCCCACCACAUGAUGAUGUCUGAAGAGCCUUAGUUUUUUG | -3.37
GACCAAUCUGCCCUCAGAGCUCGAGAACAUCUUCGGAUGCAGAGGAAGCAGGCUUCGGUGGCGCGAUAGCGCCAACGUCCUCAACCUCCAAUGCAUCCCACUACAUGAUGAUGCCUGAAGAGCCUUGGUUUUUUG | -2.85
GACCGAUCUGCCCUUAGAGCUCGAGAACAUCUUCGGAUGCAGAGGAGGCAGGCUUCGGUGGCGCGAUAGCGCCAACGUCCUCAACCUCCAAUUCAUCCCACCACAUGAUGAUGCCUUAAGAGCCUUGGUUUUUUG | -1.5
GCCCAAUCUGCCCUCAGAGCUCGAGAACAUCUUCGGAUGCAGAGGAGGCAGGCUUCGGUGGCGCGAUAGCGCCAACUUCCUCAACCUCCAAUGCAUCCCACCACAUGAUGAUGCCUGAAGAGCCUUGGUUUUUUG | -2.28
GACCAAUCAGCCCUCAGAGCUCGAGAACAUCUUCGGAUGCAGAGGAGGCAGGCUUCGGUGGCUCGAUAGCGCCAACGACCUCAACCUCCAAUCCAUCCCACCACAUGAUGAUGCCUGAAGAGCGUUGCUUUUUUG | -3.75
GACCAAUCUGCCCUCAGAGCUCGAGAACAUCUUCGGAUGCAGAGGAGGCAGGCUUCGGUGGCGCGCUAGCGCCAACGUCCUCAACCUCCAAUGCAUCCCACCACAUGAUGACGCCUGACGAGCCUUGGUUUUUUG | -1.53
GACCAAUCUGCCCUCAGAGCUCGAGAACAUCUUCGGAUGCAGAGGUGGCAGGCUUCGGUGGCGCGAUAGCGCCAACGUCCUCAACCUCCAAUGCAUCCCACCACAUGAUGAUGCCUGAAGAGCAUUGGUUCUUUG | 1.32
GCCCAAUCUGCCCUCAGAGCUCGAGAAUAUCUUCGGAUGCAGAGGAGGCAGGCUUCGGUGGCGCGAUAGCACCAACGACCUCAACCUCCGAUGCAUCCCACCACAUGAUGAUGCCUGAAGAGCCUUGGUUUUUUG | -5.83
GACCAAUCUGCCCUCAGAGCUCGAGAACAUCUUCGGAUGCAGAGGAAGCAGGCUUCGGUGGCGCGAUAGCGCCAACGUCCUCAACCUUCAAUGCAUCCCACCACAUGAUGAUGCCUGAAGAGCCUUGGUUUUUUG | -0.911
